Ref: patent US20220195063A1

Biological target: T1, human SIRPγ (huSIRPγ) (human, UniProt Q9P1W8 29-360, limits assumed, biotinylated in the SPR assay)
T1 construct: Coated on the plate in ELISA, biotinylated and captured in SPR
T1 sequence (Q9P1W8 29-360 limits assumed): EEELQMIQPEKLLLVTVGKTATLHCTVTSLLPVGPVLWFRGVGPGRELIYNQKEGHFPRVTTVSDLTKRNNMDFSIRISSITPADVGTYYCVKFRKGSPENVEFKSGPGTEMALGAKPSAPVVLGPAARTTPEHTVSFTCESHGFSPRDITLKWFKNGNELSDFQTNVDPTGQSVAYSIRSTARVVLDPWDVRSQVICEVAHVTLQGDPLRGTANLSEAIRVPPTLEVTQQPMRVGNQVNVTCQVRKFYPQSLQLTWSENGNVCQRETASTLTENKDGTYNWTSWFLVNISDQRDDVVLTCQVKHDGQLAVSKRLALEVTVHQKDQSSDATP
Assay: ELISA, antigen coated
property: EC50 (µg/mL)

binder	unit-symbol	value-prefix	measured-value
anti-SIRPα antibody 1 (antibody, human IgG1, kappa, L234A L235A, V domains shown, Rabbit variable regions on human IgG1 LALA / kappa) VH: QSVEESGGRLVTPGTPLTLTCTVSGIDLSSYAMSWVRQAPGKGLEWIGIISSGGITYYASWAKGRFTISKTSTTVDLKIPSPTTEDTATYFCARSLWAASNYYMALWGPGTLVTVSS VL: AIKMTQTPASVSAAVGGTVSINCQASEDIESYLAWYQQKPGQPPKLLIYRASTLASGVSSRFKGSGSGTQFTLTISDLESADAATYYCLGDYYSSSGDTGAFGGGTEVVVKR	µg/mL	=	0.043
anti-SIRPα antibody 2 (antibody, human IgG1, kappa, L234A L235A, V domains shown, Rabbit variable regions on human IgG1 LALA / kappa) VH: QSVEESGGRLVTPGTPLTLTCTVSGFSLSNYAMHWVRQAPGKGLEWIGIIYTGGATSYATWAKGQFTISKTSTTVDLKITSPTTEDTATYFCARGDRDGYAYFNIWGPGTLVTVSL VL: QIVMTQTPFSVSAVVGGTVTIKCQASHNIGSWLAWYQQKPGQRPKLLIYDASTLASGVSSRFKGSGSGTEFTLTISGVESADAATYYCQQGYGISYVHNVFGGGTEVVVKR	µg/mL	>	100
29AM4-5huIgG1LALA (antibody, V domains shown, HAVT20 leader left out) VH: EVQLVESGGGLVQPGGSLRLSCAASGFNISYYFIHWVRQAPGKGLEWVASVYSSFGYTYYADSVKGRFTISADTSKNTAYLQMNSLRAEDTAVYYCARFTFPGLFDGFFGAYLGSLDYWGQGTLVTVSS VL: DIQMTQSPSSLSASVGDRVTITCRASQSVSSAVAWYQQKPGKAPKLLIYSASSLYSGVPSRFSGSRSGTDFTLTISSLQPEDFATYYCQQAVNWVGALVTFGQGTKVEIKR	µg/mL	=	0.034
